- target: VEGFR2 (Homo sapiens)
- Sequence (P35968 20-1356): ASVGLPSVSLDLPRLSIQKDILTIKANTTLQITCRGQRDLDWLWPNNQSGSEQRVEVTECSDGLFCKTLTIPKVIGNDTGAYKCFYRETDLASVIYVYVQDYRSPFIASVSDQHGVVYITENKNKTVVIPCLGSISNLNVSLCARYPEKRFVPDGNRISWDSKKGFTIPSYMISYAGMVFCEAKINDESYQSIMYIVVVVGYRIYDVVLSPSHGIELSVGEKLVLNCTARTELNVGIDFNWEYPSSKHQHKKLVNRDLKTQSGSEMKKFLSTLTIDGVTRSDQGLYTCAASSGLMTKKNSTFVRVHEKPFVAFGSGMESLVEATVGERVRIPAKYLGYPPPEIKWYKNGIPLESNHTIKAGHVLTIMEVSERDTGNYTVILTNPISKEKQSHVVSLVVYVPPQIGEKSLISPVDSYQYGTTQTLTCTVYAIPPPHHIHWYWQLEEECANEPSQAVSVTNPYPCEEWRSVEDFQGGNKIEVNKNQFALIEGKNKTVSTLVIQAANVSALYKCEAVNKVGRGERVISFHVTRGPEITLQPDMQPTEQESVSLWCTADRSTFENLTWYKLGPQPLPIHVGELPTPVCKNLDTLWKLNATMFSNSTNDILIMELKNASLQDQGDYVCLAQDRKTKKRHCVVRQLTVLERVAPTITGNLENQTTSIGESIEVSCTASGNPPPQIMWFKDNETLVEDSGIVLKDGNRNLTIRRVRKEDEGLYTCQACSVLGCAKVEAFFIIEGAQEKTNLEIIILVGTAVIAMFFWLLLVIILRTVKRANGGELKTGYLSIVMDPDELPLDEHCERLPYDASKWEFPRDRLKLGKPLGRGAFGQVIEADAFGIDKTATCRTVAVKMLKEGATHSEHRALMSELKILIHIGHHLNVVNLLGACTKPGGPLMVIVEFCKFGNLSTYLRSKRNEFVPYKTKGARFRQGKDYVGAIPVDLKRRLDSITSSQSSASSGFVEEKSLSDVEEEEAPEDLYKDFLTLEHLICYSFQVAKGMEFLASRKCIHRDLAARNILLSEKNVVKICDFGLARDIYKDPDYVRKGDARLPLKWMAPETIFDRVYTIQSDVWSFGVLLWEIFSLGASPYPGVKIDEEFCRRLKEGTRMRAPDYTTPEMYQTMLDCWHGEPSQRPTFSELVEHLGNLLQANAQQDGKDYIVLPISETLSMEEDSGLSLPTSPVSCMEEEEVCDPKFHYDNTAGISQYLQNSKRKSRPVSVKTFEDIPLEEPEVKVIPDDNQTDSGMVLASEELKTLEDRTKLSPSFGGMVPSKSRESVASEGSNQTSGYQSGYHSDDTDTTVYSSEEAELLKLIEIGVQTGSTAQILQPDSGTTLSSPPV
- test name: kinase assay VEGFR2
- Type: biochemical
- experimental setup: read-out: activity against VEGFR2; Figure 7a
measurement kind: IC50 (nM)
Reply with just the number (in nM).

c1cc(-c2cnn3cc(-c4ccc(N5CCNCC5)cc4)cnc23)c2cccnc2c1 :: 2800

# IC50 lookup, item c1ccc2c(-c3cnn4cc(-c5ccc(N6CCNCC6)cc5)cnc34)ccnc2c1 [LDN-193189, reference compound]
560

---

A short record of IC50 observed with RIPK2 (Homo sapiens) follows.
Sequence (O43353 whole entry): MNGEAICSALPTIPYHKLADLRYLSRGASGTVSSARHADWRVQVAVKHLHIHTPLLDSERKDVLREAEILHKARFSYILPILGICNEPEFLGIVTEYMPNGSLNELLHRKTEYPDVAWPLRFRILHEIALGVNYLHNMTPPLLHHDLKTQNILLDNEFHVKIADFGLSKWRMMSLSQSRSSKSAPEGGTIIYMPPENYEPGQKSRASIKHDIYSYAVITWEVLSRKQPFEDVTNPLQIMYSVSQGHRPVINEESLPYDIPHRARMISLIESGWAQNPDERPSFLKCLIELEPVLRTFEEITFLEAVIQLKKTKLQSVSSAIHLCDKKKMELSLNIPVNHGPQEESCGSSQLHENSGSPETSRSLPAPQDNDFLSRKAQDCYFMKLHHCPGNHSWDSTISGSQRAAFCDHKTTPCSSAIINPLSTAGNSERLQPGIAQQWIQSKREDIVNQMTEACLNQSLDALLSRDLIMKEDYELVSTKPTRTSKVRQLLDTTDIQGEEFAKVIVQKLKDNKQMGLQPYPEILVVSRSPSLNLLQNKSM

c1cc(-c2cnn3cc(-c4ccc(N5CCNCC5)cc4)cnc23)c2cccnc2c1 [LDN-212854] :: < 0.1 µM

# input for lookup
Tell me reported IC50 for c1ccc2c(-c3cnn4cc(-c5ccc(N6CCNCC6)cc5)cnc34)ccnc2c1 [LDN-193189, reference compound] , tested with RIPK2 (Homo sapiens).
< 0.1 µM

src = paper PMC3901569
